system: GDP-loaded K-Ras (1-169) G12D, C51S, C80L, C118S (Homo sapiens, UniProt P01116, C118S/C51S/C80L/G12D)
Construct: GDP-loaded K-Ras (1-169) G12D, C51S, C80L, C118S
experimentalProtocol: K-Ras G12D(GDP) cross-linking assay (conjugate formation, TOF mass spectrometry)
Format: binding
assayConditions: Table 5; percent covalently modified K-Ras by MS; room temperature; typical compound conc. 2, 10, 25 μM, endpoints 1 and 24 h
Procedure: Protocol: K-Ras G12D(GDP) Cross-Linking Assay […] GDP-loaded K-Ras (1-169) G12D, C51S, C80L, C118S and GDP-loaded K-Ras (1-169) C51S, C80L, C118S were adjusted to 50 μM in K-Ras assay buffer (12.5 mM HEPES, 75 mM NaCl and 1 mM MgCl2 at pH 7.4). […] At each time point, the reactions were analyzed immediately or quenched with 5 μL of a 5% formic acid solution and kept at 4° C. until analysis. […]
reportedEndpoint: G12D x-linking (%)

- molecule: "Cc1ccc2[nH]ncc2c1N1CCc2c(nc(OC[C@@H]3CCCN3C)nc2N2CCN(C(=O)[C@H]3CN3)[C@@H](CC#N)C2)C1"
  reportedEndpoint: "G12D x-linking (%)"
  dataValue: "+ (0 < x ≤ 20)"
- molecule: "Cc1cccc2cccc(N3CCc4c(nc(OC[C@@H]5CCCN5C)nc4N4CC[C@@H](NC(=O)[C@@H]5CN5)[C@@H](CC#N)C4)C3)c12"
  reportedEndpoint: "G12D x-linking (%)"
  dataValue: "+ (0 < x ≤ 20)"
- molecule: "Cc1cccc2cccc(N3CCc4c(nc(OC[C@@H]5CCCN5C)nc4N4CCC(N=C=NCCCN(C)c5ccccc5)CC4)C3)c12"
  reportedEndpoint: "G12D x-linking (%)"
  dataValue: "+ (0 < x ≤ 20)"
- molecule: "Cc1cccc2cccc(N3CCc4c(nc(OC[C@@H]5CCCN5C)nc4N4CCC(N=C=NCCCn5ccnc5)CC4)C3)c12"
  reportedEndpoint: "G12D x-linking (%)"
  dataValue: "+++ (40 < x ≤ 100)"
- molecule: "COCCN1C[C@@H]1C(=O)N1CCN(c2nc(OC[C@@H]3CCCN3C)nc3c2CCN(c2cccc4cccc(C)c24)C3)C[C@@H]1CC#N (stereo partly shown)"
  reportedEndpoint: "G12D x-linking (%)"
  dataValue: "++ (20 < x ≤ 40)"
- molecule: "COC(=O)[C@@H]1CN1C(=O)N1CCN(c2nc(OC[C@@H]3CCCN3C)nc3c2CCN(c2cccc4cccc(C)c24)C3)C[C@@H]1CC#N"
  reportedEndpoint: "G12D x-linking (%)"
  dataValue: "+ (0 < x ≤ 20)"
- molecule: "COCCN1C[C@H]1C(=O)N1CCN(c2nc(OC[C@@H]3CCCN3C)nc3c2CCN(c2cccc4cccc(C)c24)C3)C[C@@H]1CC#N (stereo partly shown)"
  reportedEndpoint: "G12D x-linking (%)"
  dataValue: "+ (0 < x ≤ 20)"
- molecule: "CO[C@@H]1CCCC[C@@H]1N=C=NC1CCN(c2nc(OC[C@@H]3CCCN3C)nc3c2CCN(c2cccc4cccc(C)c24)C3)CC1"
  reportedEndpoint: "G12D x-linking (%)"
  dataValue: "+ (0 < x ≤ 20)"
- molecule: "CSCCCN=C=NC1CCN(c2nc(OC[C@@H]3CCCN3C)nc3c2CCN(c2cccc4cccc(C)c24)C3)CC1"
  reportedEndpoint: "G12D x-linking (%)"
  dataValue: "++ (20 < x ≤ 40)"
- molecule: "COCCN=C=NCC1CCN(c2nc(OC[C@@H]3CCCN3C)nc3c2CCN(c2cccc4cccc(C)c24)C3)CC1"
  reportedEndpoint: "G12D x-linking (%)"
  dataValue: "+++ (40 < x ≤ 100)"
- molecule: "C#CCCN1CCC[C@H]1COc1nc2c(c(N3CCN(C(=O)[C@@H]4CN4)[C@@H](CC#N)C3)n1)CCN(c1cccc3cccc(C)c13)C2"
  reportedEndpoint: "G12D x-linking (%)"
  dataValue: "+ (0 < x ≤ 20)"
- molecule: "CC(=O)N1C[C@H]1C(=O)N1CCN(c2nc(OC[C@@H]3CCCN3C)nc3c2CCN(c2cccc4cccc(C)c24)C3)C[C@@H]1CC#N"
  reportedEndpoint: "G12D x-linking (%)"
  dataValue: "+ (0 < x ≤ 20)"
- molecule: "Cc1cccc2cccc(N3CCc4c(nc(OC[C@@H]5CCCN5C)nc4N4CCC(N=C=NCCn5ccnc5)CC4)C3)c12"
  reportedEndpoint: "G12D x-linking (%)"
  dataValue: "+++ (40 < x ≤ 100)"
- molecule: "CN1CCC[C@H]1COc1nc2c(c(N3CCN(C(=O)[C@@H]4CN4)[C@@H](CC#N)C3)n1)CCN(c1cc(O)cc3ccccc13)C2"
  reportedEndpoint: "G12D x-linking (%)"
  dataValue: "+ (0 < x ≤ 20)"
- molecule: "Cc1cccc2cccc(N3CCc4c(nc(OC[C@@H]5CCCN5C)nc4N4CC[C@H](NC(=O)[C@@H]5CN5)[C@@H](CC#N)C4)C3)c12"
  reportedEndpoint: "G12D x-linking (%)"
  dataValue: "+ (0 < x ≤ 20)"
- molecule: "COCCN=C=NCC1CCN(c2nc(=O)n(-c3c(C)ccnc3C(C)C)c3nc(-c4ccccc4F)c(F)cc23)CC1"
  reportedEndpoint: "G12D x-linking (%)"
  dataValue: "++ (20 < x ≤ 40)"
- molecule: "Cc1cccc2cccc(N3CCc4c(nc(OC[C@@H]5CCCN5C)nc4N4CCC(N=C=NCCCN(C)c5ccccn5)CC4)C3)c12"
  reportedEndpoint: "G12D x-linking (%)"
  dataValue: "++ (20 < x ≤ 40)"
- molecule: "COCCN=C=N[C@H]1CC[C@@H](N(C)c2nc(OC[C@@H]3CCCN3C)nc3c2CCN(c2cccc4cccc(C)c24)C3)CC1"
  reportedEndpoint: "G12D x-linking (%)"
  dataValue: "+++ (40 < x ≤ 100)"
- molecule: "O=C([C@H]1CN1)N1CCN2c3ncnc4cc(-c5c(O)cccc5F)c(Cl)c(c34)OC[C@@H]2C1"
  reportedEndpoint: "G12D x-linking (%)"
  dataValue: 0
- molecule: "COCC1(N=C=N[C@H]2C[C@H](Nc3nc(OC[C@@H]4CCCN4C)nc4c3CCN(c3cccc5cccc(C)c35)C4)C2)CC1"
  reportedEndpoint: "G12D x-linking (%)"
  dataValue: "+++ (40 < x ≤ 100)"
- molecule: "COc1ccc(CN=C=NC2CCN(c3nc(OC[C@@H]4CCCN4C)nc4c3CCN(c3cccc5cccc(C)c35)C4)CC2)c(OC)c1"
  reportedEndpoint: "G12D x-linking (%)"
  dataValue: "+ (0 < x ≤ 20)"
- molecule: "Cc1cccc2cccc(N3CCc4c(nc(OC[C@@H]5CCCN5C)nc4N4CCC(N=C=NCc5cccs5)CC4)C3)c12"
  reportedEndpoint: "G12D x-linking (%)"
  dataValue: "+ (0 < x ≤ 20)"
- molecule: "CO[C@@H]1CCC[C@@H]1N=C=NC1CCN(c2nc(OC[C@@H]3CCCN3C)nc3c2CCN(c2cccc4cccc(C)c24)C3)CC1 (single isomer, unassigned)"
  reportedEndpoint: "G12D x-linking (%)"
  dataValue: "++ (20 < x ≤ 40)"
- molecule: "COc1ccccc1CN=C=N[C@@H]1CCN(c2nc(OC[C@@H]3CCCN3C)nc3c2CCN(c2cccc4cccc(C)c24)C3)C[C@@H]1CC#N"
  reportedEndpoint: "G12D x-linking (%)"
  dataValue: "+ (0 < x ≤ 20)"
- molecule: "Cc1cccc2cccc(N3CCc4c(nc(OC[C@@H]5CCCN5C)nc4N4CCN(C(=O)[C@H]5CN5Cc5ccccc5)[C@@H](CC#N)C4)C3)c12 (stereo partly shown)"
  reportedEndpoint: "G12D x-linking (%)"
  dataValue: "+ (0 < x ≤ 20)"

====

system: GDP-loaded K-Ras (1-169) C51S, C80L, C118S (Homo sapiens, UniProt P01116, C118S/C51S/C80L)
Construct: GDP-loaded K-Ras (1-169) C51S, C80L, C118S
experimentalProtocol: K-Ras WT (GDP) cross-linking assay (conjugate formation, TOF mass spectrometry)
Type: binding
assayConditions: Table 4; percent covalently modified K-Ras by MS; room temperature; typical compound conc. 2, 10, 25 μM, endpoints 1 and 24 h

- compound: "Cc1cccc2cccc(N3CCc4c(nc(OC[C@@H]5CCCN5C)nc4N4CCC(N(C)C(=O)C5CN5)CC4)C3)c12 (stereo partly shown)"
  WT x-linking (%): "+ (0 < x ≤ 20)"
- compound: "Cc1cccc2cccc(N3CCc4c(nc(OC[C@@H]5CCCN5C)nc4NCCN(C)C4=NCCO4)C3)c12"
  WT x-linking (%): 0
- compound: "Cc1ccnc(C(C)C)c1-n1c(=O)nc(N(C)CCCN=C=NCc2ccccc2)c2cc(F)c(-c3ccccc3F)nc21"
  WT x-linking (%): "+ (0 < x ≤ 20)"
- compound: "Cc1cccc2cccc(N3CCc4c(nc(OC[C@@H]5CCCN5C)nc4N4CCC(N(C)C(=O)C5CN5S(C)(=O)=O)CC4)C3)c12 (stereo partly shown)"
  WT x-linking (%): "+ (0 < x ≤ 20)"
